Test system: RARg homodimer (NR concentration 270 nM)
Experiment: PBM binding z-score (relative to random genomic background probes); higher = stronger binding; sequences stand for … in GC…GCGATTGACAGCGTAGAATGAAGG
MEASUREMENT KIND: PBM binding z-score
Hey, just send me the number, nothing else.

Entry under review: "CCTACTGGGCCATGAGGTCATTGATATCAACGTT" . Reported PBM binding z-score? 2.78

Entry under review: "ATCTCTGGGTAACCAAGTTCAGTGAATGCCGAAC" . Reported PBM binding z-score? 0.596

Entry under review: "CCCGACAGGTGAAAGGTAACTCAGTCTGGTACGC" . Reported PBM binding z-score? 0.581

Entry under review: "GCGACTGGGGCAAAGCAGGTTACAATAAGGTTGG" . Reported PBM binding z-score? 0.779

Entry under review: "AGAACGGGGGCACGCTGAGTTGATAGCAGAGTAG" . Reported PBM binding z-score? 3.2

Entry under review: "CGAACTAGGTCATTGACAGGACAGTGACTAGTAA" . Reported PBM binding z-score? 4.28

Data provenance is the supplement of paper PMC6555819.
